# experimental-details: CaMKII Cell-Based Activity: CaMKII activity in neonatal rat ventricular myocytes (NRVM) was measured by monitoring the phosphorylation level of phospholamban using high-content imaging. NRVMs were plated in a clear bottom 384-well plate in medium supplemented with 10% fetal bovine serum (FBS) and incubated at 37° C., 5% CO2 overnight. The medium was changed to a serum-free medium and compounds were dosed to the cells. The cells were incubated at 37° C., 5% CO2 for 4 hours and were then treated with 100 nM ATX-II (Alomone Labs) to activate CaMKII. 10 minutes after the addition of ATX-II, the cells were fixed with 4% formaldehyde followed by permeabilization with 0.1% triton X100. The fixed cells were stained with an anti-phospho-phospholamban primary antibody (Santa Cruz Biotechnology) and an Alexa488-labeled anti-rabbit IgG secondary antibody (Life Technologies Corporation) as well as Hoechst 33342 (Life Technologies Corporation). The cells were imaged using an ArrayScan VTI (Cellomics) and analyzed for cells containing a positive fluorescent signal at 485 nm, reported as % responder. The % responders were plotted against the compound concentration to determine the compounds EC50.
pEC50: −log10 of the molar value.
quantity-measured: pEC50

[P] CCN(CC)[C@@H](C)CNC(=O)c1cc(-c2cnn3ccc(-c4cccs4)nc23)nc(C(F)(F)F)c1
[Q] NC[C@H]1CCCN1C(=O)c1ccnc(-c2cnn3ccc(-c4cccs4)nc23)c1
QUERY: Looking at recorded values for pEC50, does P or Q come in lower? Provide the label of your selected option as the answer.
RESULT: P
(P: 6.99, Q: 7.23)

[A] CCNC(CNC(=O)c1ccnc(-c2cnn3ccc(-c4ccccc4)nc23)c1)C(C)C (configuration not stated)
[B] CCN(CC)[C@@H](C)CNC(=O)c1cc(-c2cnn3ccc(-c4cccs4)nc23)nc(N2CCC[C@@H]2COC)c1
QUERY: Which entry has a larger number for pEC50, A or B ? Provide the label of your selected option as the answer.
RESULT: A

[P] CCN(CC)CCNC(=O)c1cc(NCCO)nc(-c2cnn3ccc(-c4cccs4)nc23)c1
[Q] CCN(CC)[C@@H](C)CNC(=O)c1cc(NCC2(C)COC2)nc(-c2cnn3ccc(-c4cccs4)nc23)c1
[R] CCN(CC)[C@@H](C)CNC(=O)c1cc(OCCc2cnccn2)nc(-c2cnn3ccc(-c4cccs4)nc23)c1
[S] CCN(CC)[C@@H](C)CNC(=O)c1cc(-c2cnn(C)c2)nc(-c2cnn3ccc(-c4cccs4)nc23)c1
QUERY: Please order the records by their reported pEC50, lowest number first. Please respond with the labels ordered as the question requires.
RESULT: P, R, Q, S
(P: 6.87, R: 7.19, Q: 7.63, S: 8.08)

[a] CCN(CC)[C@@H](C)CNC(=O)c1cc(NS(=O)(=O)CC)nc(-c2cnn3ccc(-c4cccs4)nc23)c1
[b] CCN(CC)[C@@H](C)CNC(=O)c1cc(-c2cnn3ccc(-c4cccs4)nc23)nc(N2CC(NS(C)(=O)=O)C2)c1
[c] CCN(CC)[C@@H](C)CNC(=O)c1cc(-c2cnn3ccc(-c4cccs4)nc23)nc(N2CC(NC)C2)c1
QUERY: Please order the records by their reported pEC50, lowest number first. Please respond with the labels ordered as the question requires.
RESULT: a, c, b

* * *

# experimental-details: CaMKII Cell-Based Activity: CaMKII activity in neonatal rat ventricular myocytes (NRVM) was measured by monitoring the phosphorylation level of phospholamban using high-content imaging. NRVMs were plated in a clear bottom 384-well plate in medium supplemented with 10% fetal bovine serum (FBS) and incubated at 37° C., 5% CO2 overnight. The medium was changed to a serum-free medium and compounds were dosed to the cells. The cells were incubated at 37° C., 5% CO2 for 4 hours and were then treated with 100 nM ATX-II (Alomone Labs) to activate CaMKII. 10 minutes after the addition of ATX-II, the cells were fixed with 4% formaldehyde followed by permeabilization with 0.1% triton X100. The fixed cells were stained with an anti-phospho-phospholamban primary antibody (Santa Cruz Biotechnology) and an Alexa488-labeled anti-rabbit IgG secondary antibody (Life Technologies Corporation) as well as Hoechst 33342 (Life Technologies Corporation). The cells were imaged using an ArrayScan VTI (Cellomics) and analyzed for cells containing a positive fluorescent signal at 485 nm, reported as % responder. The % responders were plotted against the compound concentration to determine the compounds EC50.
quantity-measured: EC50 (nM)

{"columns": ["smiles-notation", "result-value"],
 "data": [
  ["CCN[C@@H](C)CNC(=O)c1cc(-c2cnn3ccc(-c4cccs4)nc23)nc(N2CC(C)(O)C2)c1", 368],
  ["O=C(NC[C@@H]1C[C@H](F)CN1)c1ccnc(-c2cnn3ccc(-c4cccs4)nc23)c1", 386],
  ["COc1cc(C(=O)N2CC[C@H](N)C2)cc(-c2cnn3ccc(-c4ccccc4)nc23)n1", 471],
  ["CCN1CCC[C@H]1CNC(=O)c1cc(-c2cnn3ccc(-c4cccs4)nc23)nc(N2CC(OC)C2)c1", 181]
]}

[1] CCN(CC)[C@@H](C)CNC(=O)c1cc(NCCS(N)(=O)=O)nc(-c2cnn3ccc(-c4cccs4)nc23)c1
[2] CCN(CC)[C@@H](C)CNC(=O)c1cc(Nc2cn[nH]c2)nc(-c2cnn3ccc(-c4cccs4)nc23)c1
QUERY: Which entry has a larger number for EC50, 1 or 2 ? Provide the label of your selected option as the answer.
RESULT: 1
(1: 232 nM, 2: 9.87 nM)

[a] NC[C@H]1CCCCN1C(=O)c1cc(Cl)nc(-c2cnn3ccc(-c4ccccc4)nc23)c1
[b] CC(C)(N)CNC(=O)c1ccnc(-c2cnn3ccc(-c4ccccc4)nc23)c1
QUERY: Which entry has a larger number for EC50, a or b ? Provide the label of your selected option as the answer.
RESULT: b
